# study-target: T1, EsCas13d, nuclease-dead (Eubacterium siraeum, UniProt B0MS50, R295A;H300A;R849A;H854A)
# T1 sequence: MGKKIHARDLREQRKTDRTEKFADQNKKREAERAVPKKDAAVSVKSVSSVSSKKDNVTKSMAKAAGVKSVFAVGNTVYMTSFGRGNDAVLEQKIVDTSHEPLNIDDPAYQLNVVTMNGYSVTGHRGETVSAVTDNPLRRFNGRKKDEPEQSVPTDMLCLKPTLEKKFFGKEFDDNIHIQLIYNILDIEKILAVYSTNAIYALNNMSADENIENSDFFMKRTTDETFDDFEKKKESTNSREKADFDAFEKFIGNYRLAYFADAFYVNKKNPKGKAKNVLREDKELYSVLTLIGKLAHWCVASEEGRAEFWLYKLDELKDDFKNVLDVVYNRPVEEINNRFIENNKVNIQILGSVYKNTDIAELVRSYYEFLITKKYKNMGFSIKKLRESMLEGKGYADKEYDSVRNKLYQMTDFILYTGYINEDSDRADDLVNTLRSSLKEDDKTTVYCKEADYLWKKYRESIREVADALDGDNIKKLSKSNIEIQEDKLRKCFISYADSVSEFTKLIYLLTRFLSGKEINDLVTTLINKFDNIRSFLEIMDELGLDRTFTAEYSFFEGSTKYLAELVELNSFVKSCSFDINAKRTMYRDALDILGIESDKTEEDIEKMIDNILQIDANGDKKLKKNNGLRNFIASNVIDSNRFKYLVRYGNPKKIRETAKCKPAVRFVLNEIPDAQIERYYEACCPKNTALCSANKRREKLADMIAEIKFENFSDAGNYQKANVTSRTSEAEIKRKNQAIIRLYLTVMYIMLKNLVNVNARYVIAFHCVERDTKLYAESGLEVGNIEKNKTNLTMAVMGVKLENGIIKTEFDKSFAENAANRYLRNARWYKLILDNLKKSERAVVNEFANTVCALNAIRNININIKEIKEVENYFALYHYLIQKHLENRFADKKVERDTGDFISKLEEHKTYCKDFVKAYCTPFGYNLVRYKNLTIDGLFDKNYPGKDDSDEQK
# protocol-summary: crRNA (strand 1, pre-loaded); Mg2+; 40 mM Tris-HCl pH 7.5, 150 mM NaCl, 6 mM MgCl2, 1 mM DTT, 0.1% Tween-20, 0.2 mg/ml BSA; 25 C; 10 min per concentration, then washed
# measurement-context: tags: His6-TwinStrep-SUMO cleaved; N-terminal SNAP kept (SNAP-Surface 488); label: 3' end held by stalled T7 RNA polymerase
experimental-readout: pKd
# pKd: negative log10 of molar concentration; output just the value

The examples below pair each entry with its known result.
{"binder": "target 1 insU 3' of 7,insA 3' of 2 (mixed) RNA 1: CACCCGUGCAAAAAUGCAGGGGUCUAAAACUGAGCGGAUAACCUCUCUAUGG RNA 2: GGGAAUGGAUCCACAUCUACGAAUUCGUACCAUAGAGAGGUUAUCUCGCUCAACCGAGAUCGGAAGAGCACACGU", "pKd": 7.73}
{"binder": "target 1 insA 3' of 13,insC 3' of 12 (mixed) RNA 1: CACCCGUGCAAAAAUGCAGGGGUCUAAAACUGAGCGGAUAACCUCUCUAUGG RNA 2: GGGAAUGGAUCCACAUCUACGAAUUCGUACCAUAGAGAGAGCUUAUCCGCUCACCGAGAUCGGAAGAGCACACGU", "pKd": 8.20}
{"binder": "target 1 MT 5'PFS CCG 3'PFS AGA (mixed) RNA 1: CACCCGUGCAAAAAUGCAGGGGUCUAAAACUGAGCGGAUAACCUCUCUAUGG RNA 2: GGGAAUGGAUCCACAUCUACGAAUUCCCGCCAUAGAGAGGUUAUCCGCUCAAGAAGAUCGGAAGAGCACACGU", "pKd": 8.35}
{"binder": "target 1 insU 3' of 4,insG 3' of 4 (mixed) RNA 1: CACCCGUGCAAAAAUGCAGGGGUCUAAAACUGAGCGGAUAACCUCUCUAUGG RNA 2: GGGAAUGGAUCCACAUCUACGAAUUCGUACCAUAGAGAGGUUAUCCGCUGUCACCGAGAUCGGAAGAGCACACGU", "pKd": 8.05}
{"binder": "target 1 MT 5'PFS CCU 3'PFS UCC (mixed) RNA 1: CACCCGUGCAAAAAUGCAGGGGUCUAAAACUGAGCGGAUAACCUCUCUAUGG RNA 2: GGGAAUGGAUCCACAUCUACGAAUUCCCUCCAUAGAGAGGUUAUCCGCUCAUCCAGAUCGGAAGAGCACACGU", "pKd": 7.85}
{"binder": "target 3 insG 3' of 8,insG 3' of 6 (mixed) RNA 1: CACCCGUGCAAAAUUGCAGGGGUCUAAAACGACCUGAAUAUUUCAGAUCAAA RNA 2: GGGAAUGGAUCCACAUCUACGAAUUCGUUUUUGAUCUGAAAUAUGUCGAGGUCUGCAGAUCGGAAGAGCACACGU", "pKd": 7.50}
{"binder": "target 2 MT 5'PFS CUG 3'PFS ACC (mixed) RNA 1: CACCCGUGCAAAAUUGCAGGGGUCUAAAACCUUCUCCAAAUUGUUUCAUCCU RNA 2: GGGAAUGGAUCCACAUCUACGAAUUCCUGAGGAUGAAACAAUUUGGAGAAGACCAGAUCGGAAGAGCACACGU", "pKd": 8.25}

Next item in the queue.
Item target 1 insA 3' of 22,insA 3' of 21 (mixed) RNA 1: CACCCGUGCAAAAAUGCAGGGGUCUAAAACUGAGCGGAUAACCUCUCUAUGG RNA 2: GGGAAUGGAUCCACAUCUACGAAUUCGUACACAAUAGAGAGGUUAUCCGCUCACCGAGAUCGGAAGAGCACACGU : provide pKd
7.79
